Each entry below carries its reported IC50.
Test system: HCT-116
Experiment: Cytotoxicity against human HCT116 cells assessed as inhibition of cell proliferation by MTT assay
Assay type: functional, cell-based
ASSAY_READOUT: IC50 (nM)

• CN(C)CCCn1c2c(c3c4ccccc4c(O)cc31)C(=O)c1ccccc1C2=O = 996
• CN(C)CCn1c2c(c3c4ccccc4c(O)cc31)C(=O)c1ccccc1C2=O = 706
• O=C1c2ccccc2-c2nc3cccnc3nc21 = 44600

###

Tested on: HepG2
Test: Cytotoxicity against human HepG2 cells assessed as inhibition of cell proliferation at 10 uM by MTT assay relative to control
Format: functional
inhibition at 10 µM below 20% gives Not met; inhibition at 10 µM at or above it gives Met.

• O=C1c2ccccc2-c2nc3ncccc3nc21 = Not met
• O=C(NCCO)C1c2c(ccc(Br)c2O)-n2c(=O)c3ccccc3c(=O)n21 (centres undefined) = Not met
• O=C1c2ccccc2-c2nc3cc4ccccc4cc3nc21 = Not met
• CCOC(=O)C1C2=C(CCCC2=O)n2c(=O)c3ccccc3c(=O)n21 (centres undefined) = Not met
• COc1ccc2[nH]c3c(c2c1)C(=O)c1ccccc1C3=O = Met
• O=C1c2ccccc2-c2nc3cc(F)ccc3nc21 = Met
• O=C1c2ccccc2-c2nc3ccc(C(F)(F)F)cc3nc21 = Met
• CCOC(=O)C1c2c(ccc(Br)c2O)-n2c(=O)c3ccccc3c(=O)n21 (centres undefined) = Not met
• CCOC(=O)C1c2c(O)cccc2-n2c(=O)c3ccccc3c(=O)n21 (centres undefined) = Not met
• COc1ccc2nc3c(nc2c1)C(=O)c1ccccc1-3 = Not met
• CN(C)CCNC(=O)C1c2c(ccc(Br)c2O)-n2c(=O)c3ccccc3c(=O)n21 (centres undefined) = Not met
• CN(C)CCCn1c2c(c3c4ccccc4c(O)cc31)C(=O)c1ccccc1C2=O = Met
• CN(C)CCCNC(=O)C1c2c(ccc(Br)c2O)-n2c(=O)c3ccccc3c(=O)n21 (centres undefined) = Not met
• O=C(NCCCO)C1c2c(O)cccc2-n2c(=O)c3ccccc3c(=O)n21 (centres undefined) = Not met
• CN(C)CCCNC(=O)C1c2c(O)cccc2-n2c(=O)c3ccccc3c(=O)n21 (centres undefined) = Not met
• O=C1c2ccccc2-c2nc3ccccc3nc21 = Met
• CN(C)CCn1c2c(c3c4ccccc4c(O)cc31)C(=O)c1ccccc1C2=O = Met
• O=C1c2ccccc2-c2nc3cccnc3nc21 = Met
• COc1ccc2nc3c(nc2c1)-c1ccccc1C3=O = Not met
• Cc1ccc2nc3c(nc2c1)C(=O)c1ccccc1-3 = Not met
• CN(C)CCNC(=O)C1c2c(O)cccc2-n2c(=O)c3ccccc3c(=O)n21 (centres undefined) = Not met
• O=C(NCCO)C1c2c(O)cccc2-n2c(=O)c3ccccc3c(=O)n21 (centres undefined) = Not met
• O=C1c2ccccc2-c2nc3cc(C(F)(F)F)ccc3nc21 = Met
• O=C(NCCCO)C1c2c(ccc(Br)c2O)-n2c(=O)c3ccccc3c(=O)n21 (centres undefined) = Not met

###

System: U-87 MG
Test: Cytotoxicity against human U87MG cells assessed as inhibition of cell proliferation at 10 uM by MTT assay relative to control
Assay type: functional, U-87MG ATCC
ASSAY_READOUT: inhibition at 10 µM

- O=C(NCCCO)C1c2c(ccc(Br)c2O)-n2c(=O)c3ccccc3c(=O)n21 (centres undefined): -4.7%
- COc1ccc2[nH]c3c(c2c1)C(=O)c1ccccc1C3=O: 49%
- O=C(NCCO)C1c2c(ccc(Br)c2O)-n2c(=O)c3ccccc3c(=O)n21 (centres undefined): 0.4%
- CN(C)CCn1c2c(c3c4ccccc4c(O)cc31)C(=O)c1ccccc1C2=O: 78.8%
- O=C(NCCCO)C1c2c(O)cccc2-n2c(=O)c3ccccc3c(=O)n21 (centres undefined): 2.4%
- O=C(NCCO)C1c2c(O)cccc2-n2c(=O)c3ccccc3c(=O)n21 (centres undefined): -0.6%
- COc1ccc2nc3c(nc2c1)C(=O)c1ccccc1-3: -14.4%
- CN(C)CCCNC(=O)C1c2c(O)cccc2-n2c(=O)c3ccccc3c(=O)n21 (centres undefined): -4.7%
- O=C1c2ccccc2-c2nc3cc(C(F)(F)F)ccc3nc21: -7.67%
- O=C1c2ccccc2-c2nc3cc(F)ccc3nc21: -13.2%
- CN(C)CCCn1c2c(c3c4ccccc4c(O)cc31)C(=O)c1ccccc1C2=O: 86%
- O=C1c2ccccc2-c2nc3ccc(C(F)(F)F)cc3nc21: -15.6%
- O=C1c2ccccc2-c2nc3cc4ccccc4cc3nc21: -11.5%
- CCOC(=O)C1c2c(ccc(Br)c2O)-n2c(=O)c3ccccc3c(=O)n21 (centres undefined): 4.1%
- COc1ccc2nc3c(nc2c1)-c1ccccc1C3=O: -7.74%
- CN(C)CCNC(=O)C1c2c(O)cccc2-n2c(=O)c3ccccc3c(=O)n21 (centres undefined): 1.1%
- O=C1c2ccccc2-c2nc3cccnc3nc21: 20.8%
- Cc1ccc2nc3c(nc2c1)C(=O)c1ccccc1-3: -13.9%
- O=C1c2ccccc2-c2nc3ccccc3nc21: -14.5%
- CN(C)CCNC(=O)C1c2c(ccc(Br)c2O)-n2c(=O)c3ccccc3c(=O)n21 (centres undefined): 0.1%
- CCOC(=O)C1C2=C(CCCC2=O)n2c(=O)c3ccccc3c(=O)n21 (centres undefined): 1.5%
- CCOC(=O)C1c2c(O)cccc2-n2c(=O)c3ccccc3c(=O)n21 (centres undefined): 1.9%
- CN(C)CCCNC(=O)C1c2c(ccc(Br)c2O)-n2c(=O)c3ccccc3c(=O)n21 (centres undefined): -2.5%
- O=C1c2ccccc2-c2nc3ncccc3nc21: -23.3%
